Give measured activity coefficient for each item. Keep answers brief.
Experiment: activity coefficient (dimensionless); of the first substance listed, at infinite dilution; xn = mol fraction of the nth substance listed
Settings: 343.75 K; Liquid; Chromatography; x1 = 0
Answers are plain numbers.

Working through the 2 compounds below one at a time, give activity coefficient for each.
1. CC(C)O [propan-2-ol] + CCCCCC[n+]1ccn(C)c1.O=S(=O)([N-]S(=O)(=O)C(F)(F)F)C(F)(F)F
2. CCCCCCCCCCC [undecane] + CCCCCC[n+]1ccn(C)c1.O=S(=O)([N-]S(=O)(=O)C(F)(F)F)C(F)(F)F

Result:
1. 1.21
2. 27.7

The following compounds each have a reported value; give each one's activity coefficient.
1. C1=CCCCC1 [cyclohexene] + CCCCCC[n+]1ccn(C)c1.O=S(=O)([N-]S(=O)(=O)C(F)(F)F)C(F)(F)F
2. C=CCCCCCCCCC [1-undecene] + CCCCCC[n+]1ccn(C)c1.O=S(=O)([N-]S(=O)(=O)C(F)(F)F)C(F)(F)F
3. CCCCCCC [heptane] + CCCCCC[n+]1ccn(C)c1.O=S(=O)([N-]S(=O)(=O)C(F)(F)F)C(F)(F)F
4. CCC(C)(C)O [2-methylbutan-2-ol] + CCCCCC[n+]1ccn(C)c1.O=S(=O)([N-]S(=O)(=O)C(F)(F)F)C(F)(F)F
5. c1ccccc1 [benzene] + CCCCCC[n+]1ccn(C)c1.O=S(=O)([N-]S(=O)(=O)C(F)(F)F)C(F)(F)F
6. CCCCCC [hexane] + CCCCCC[n+]1ccn(C)c1.O=S(=O)([N-]S(=O)(=O)C(F)(F)F)C(F)(F)F
7. CCCCCO [pentan-1-ol] + CCCCCC[n+]1ccn(C)c1.O=S(=O)([N-]S(=O)(=O)C(F)(F)F)C(F)(F)F
8. CCCCCCCC [octane] + CCCCCC[n+]1ccn(C)c1.O=S(=O)([N-]S(=O)(=O)C(F)(F)F)C(F)(F)F

Result:
1: 2.83; 2: 17.4; 3: 8.65; 4: 1.22; 5: 0.769; 6: 6.74; 7: 2; 8: 11.5

Value sought for every listed compound: activity coefficient.
1. C=CCCCCCCC [1-nonene] + CCCCCC[n+]1ccn(C)c1.O=S(=O)([N-]S(=O)(=O)C(F)(F)F)C(F)(F)F
2. CCCCCCCCCCCC [dodecane] + CCCCCC[n+]1ccn(C)c1.O=S(=O)([N-]S(=O)(=O)C(F)(F)F)C(F)(F)F

Result:
[10.5, 36.4]

====

Assay: activity coefficient (dimensionless); of the first substance listed, at infinite dilution; xn = mol fraction of the nth substance listed
Details: 333.45 K; Liquid; Chromatography; x1 = 0
reported-endpoint: activity coefficient
Answers are plain numbers.

Some solved entries appear below for comparison.
1) C=CCCCCC [1-heptene] + CCCCCC[n+]1ccn(C)c1.O=S(=O)([N-]S(=O)(=O)C(F)(F)F)C(F)(F)F : 5.69
2) CCO [ethanol] + CCCCCC[n+]1ccn(C)c1.O=S(=O)([N-]S(=O)(=O)C(F)(F)F)C(F)(F)F : 1.35
3) CO [methanol] + CCCCCC[n+]1ccn(C)c1.O=S(=O)([N-]S(=O)(=O)C(F)(F)F)C(F)(F)F : 1.1
4) CCCCC [pentane] + CCCCCC[n+]1ccn(C)c1.O=S(=O)([N-]S(=O)(=O)C(F)(F)F)C(F)(F)F : 4.72
5) CCCO [propan-1-ol] + CCCCCC[n+]1ccn(C)c1.O=S(=O)([N-]S(=O)(=O)C(F)(F)F)C(F)(F)F : 1.63
6) ClC(Cl)Cl [trichloromethane] + CCCCCC[n+]1ccn(C)c1.O=S(=O)([N-]S(=O)(=O)C(F)(F)F)C(F)(F)F : 0.71
7) C=CCCC [1-pentene] + CCCCCC[n+]1ccn(C)c1.O=S(=O)([N-]S(=O)(=O)C(F)(F)F)C(F)(F)F : 3.39

Moving on to another molecule below.
// field: activity coefficient; key: C=CCCCCCC [oct-1-ene] + CCCCCC[n+]1ccn(C)c1.O=S(=O)([N-]S(=O)(=O)C(F)(F)F)C(F)(F)F ; value = 7.66

====

Assay: activity coefficient (dimensionless); of the first substance listed, at infinite dilution; xn = mol fraction of the nth substance listed
Details: 322.75 K; Liquid; Chromatography; x1 = 0
reported-endpoint: activity coefficient
One number for each entry.

# count of solved cases: 6
1) CCC(=O)OC [methyl propanoate] + CCCCCC[n+]1ccn(C)c1.O=S(=O)([N-]S(=O)(=O)C(F)(F)F)C(F)(F)F : 0.681
2) CCCCC(=O)OC [methyl pentanoate] + CCCCCC[n+]1ccn(C)c1.O=S(=O)([N-]S(=O)(=O)C(F)(F)F)C(F)(F)F : 1.04
3) c1ccccc1 [benzene] + CCCCCC[n+]1ccn(C)c1.O=S(=O)([N-]S(=O)(=O)C(F)(F)F)C(F)(F)F : 0.777
4) CCCC(=O)OC [methyl butanoate] + CCCCCC[n+]1ccn(C)c1.O=S(=O)([N-]S(=O)(=O)C(F)(F)F)C(F)(F)F : 0.868
5) CCC(C)(C)O [2-methylbutan-2-ol] + CCCCCC[n+]1ccn(C)c1.O=S(=O)([N-]S(=O)(=O)C(F)(F)F)C(F)(F)F : 1.4
6) CC(C)O [propan-2-ol] + CCCCCC[n+]1ccn(C)c1.O=S(=O)([N-]S(=O)(=O)C(F)(F)F)C(F)(F)F : 1.49

Record C=CCCCCCCC [1-nonene] + CCCCCC[n+]1ccn(C)c1.O=S(=O)([N-]S(=O)(=O)C(F)(F)F)C(F)(F)F , field activity coefficient: 11.8

====

Experiment: activity coefficient (dimensionless); of the first substance listed, at infinite dilution; xn = mol fraction of the nth substance listed
Details: 354.05 K; Liquid; Chromatography; x1 = 0
So I've got a bunch of molecules here, and I need their activity coefficient values.
One number for each entry.

Example molecules with recorded activity coefficient:
1) CCCCCCC=O [heptanal] + CCCCCC[n+]1ccn(C)c1.O=S(=O)([N-]S(=O)(=O)C(F)(F)F)C(F)(F)F : 1.07
2) CC(C)O [propan-2-ol] + CCCCCC[n+]1ccn(C)c1.O=S(=O)([N-]S(=O)(=O)C(F)(F)F)C(F)(F)F : 1.09
3) CCC(C)(C)O [2-methylbutan-2-ol] + CCCCCC[n+]1ccn(C)c1.O=S(=O)([N-]S(=O)(=O)C(F)(F)F)C(F)(F)F : 1.14
4) OC1CCCCC1 [cyclohexanol] + CCCCCC[n+]1ccn(C)c1.O=S(=O)([N-]S(=O)(=O)C(F)(F)F)C(F)(F)F : 1.87

Batch: activity coefficient for all items listed.
1. CCCCCCO [hexan-1-ol] + CCCCCC[n+]1ccn(C)c1.O=S(=O)([N-]S(=O)(=O)C(F)(F)F)C(F)(F)F
2. CCCCC=O [pentanal] + CCCCCC[n+]1ccn(C)c1.O=S(=O)([N-]S(=O)(=O)C(F)(F)F)C(F)(F)F

Result:
1: 2.18; 2: 1.03

Recorded result, CCCCCO [pentan-1-ol] + CCCCCC[n+]1ccn(C)c1.O=S(=O)([N-]S(=O)(=O)C(F)(F)F)C(F)(F)F , activity coefficient: 1.8

====

Kindly state activity coefficient for each of the entries shown.
Assay: activity coefficient (dimensionless); of the first substance listed, at infinite dilution; xn = mol fraction of the nth substance listed
Conditions: 301.65 K; Liquid; Chromatography; x1 = 0
Give bare numbers.

1. CCC(C)(C)O [2-methylbutan-2-ol] + CCCCCC[n+]1ccn(C)c1.O=S(=O)([N-]S(=O)(=O)C(F)(F)F)C(F)(F)F : 1.7
2. CCC(C)O (stereo not given) [butan-2-ol] + CCCCCC[n+]1ccn(C)c1.O=S(=O)([N-]S(=O)(=O)C(F)(F)F)C(F)(F)F : 2.14
3. CC(C)CO [2-methyl-1-propanol] + CCCCCC[n+]1ccn(C)c1.O=S(=O)([N-]S(=O)(=O)C(F)(F)F)C(F)(F)F : 2.46
4. CC(C)O [propan-2-ol] + CCCCCC[n+]1ccn(C)c1.O=S(=O)([N-]S(=O)(=O)C(F)(F)F)C(F)(F)F : 1.93

// switching to the query molecule
The measured activity coefficient associated with CC(C)(C)O [2-methylpropan-2-ol] + CCCCCC[n+]1ccn(C)c1.O=S(=O)([N-]S(=O)(=O)C(F)(F)F)C(F)(F)F reads 1.7

====

Kindly supply the reported activity coefficient values for the records listed here.
Test: activity coefficient (dimensionless); of the first substance listed, at infinite dilution; xn = mol fraction of the nth substance listed
Conditions: 385.65 K; Liquid; Chromatography; x1 = 0

Illustrative cases are given below, each with its answer.
1) CCCCCCC(=O)OC [methyl heptanoate] + CCCCCC[n+]1ccn(C)c1.O=S(=O)([N-]S(=O)(=O)C(F)(F)F)C(F)(F)F : 1.38
2) CCCCCC(=O)OC [methyl hexanoate] + CCCCCC[n+]1ccn(C)c1.O=S(=O)([N-]S(=O)(=O)C(F)(F)F)C(F)(F)F : 1.2
3) CCCCc1ccccc1 [butylbenzene] + CCCCCC[n+]1ccn(C)c1.O=S(=O)([N-]S(=O)(=O)C(F)(F)F)C(F)(F)F : 2.62
4) CCCCCc1ccccc1 [pentylbenzene] + CCCCCC[n+]1ccn(C)c1.O=S(=O)([N-]S(=O)(=O)C(F)(F)F)C(F)(F)F : 3.37

Please turn your attention to the following entry.
So, CCCc1ccccc1 [propylbenzene] + CCCCCC[n+]1ccn(C)c1.O=S(=O)([N-]S(=O)(=O)C(F)(F)F)C(F)(F)F ? Its activity coefficient was 1.96

Where do these numbers come from? They come from the NIST ThermoML archive (doi:10.1021/je0503554).
